All figures here come from the RNAGym collection of RNA variant scans (doi:10.7554/elife.90254).

B1: LINE1-mini (parent)
chain: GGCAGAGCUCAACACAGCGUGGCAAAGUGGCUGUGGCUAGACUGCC

variants of: B1; assay: self-cleavage, relative activity (ratio to wild type); higher = more cleavage; in vitro, sequencing; the parent is a self-cleaving ribozyme
Label true when self-cleavage is at or above 0.09; otherwise label false.

Please review the entries below; each comes with its answer.
VARIANT ID	ANSWER LABEL
G2U C42A	false
C18U U34G	false
A12G G17C	false
C13U C18G	false
U32A C46G	true
G5U G29U	true
G2U A14U	false
C23A U43A	true

Pending variant:
In plain terms: is recorded self-cleavage at least 0.09 for G1A G30A ?
true
